B1: library; numbered along this chain (parent)
chain: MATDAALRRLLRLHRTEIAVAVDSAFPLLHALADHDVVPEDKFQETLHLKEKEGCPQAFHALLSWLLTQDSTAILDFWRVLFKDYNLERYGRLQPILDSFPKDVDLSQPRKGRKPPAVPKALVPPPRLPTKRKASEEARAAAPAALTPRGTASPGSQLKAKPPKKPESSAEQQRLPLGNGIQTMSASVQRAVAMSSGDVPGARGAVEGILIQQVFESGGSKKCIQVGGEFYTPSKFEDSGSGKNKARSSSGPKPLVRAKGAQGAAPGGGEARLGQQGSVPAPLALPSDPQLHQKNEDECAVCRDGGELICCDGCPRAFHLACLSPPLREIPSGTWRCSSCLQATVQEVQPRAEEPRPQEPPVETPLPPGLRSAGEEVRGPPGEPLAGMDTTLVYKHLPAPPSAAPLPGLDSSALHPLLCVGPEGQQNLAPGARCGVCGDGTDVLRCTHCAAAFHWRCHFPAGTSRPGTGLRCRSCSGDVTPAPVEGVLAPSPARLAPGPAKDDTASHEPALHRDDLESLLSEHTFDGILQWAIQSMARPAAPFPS

variants of: B1; assay: AIRE transcriptional activation functional score (insulin promoter-GFP; nonsense median 0, synonymous median 1) (normalised score); higher = higher AIRE activity (more reporter activation); details: with insulin promoter-GFP reporter in HEK293
MEASURED ATTRIBUTE: AIRE transcriptional activation functional score
No unit in the answer, please; the number alone is enough.

Form field: reported AIRE transcriptional activation functional score of `H507R`
0.823

Form field: reported AIRE transcriptional activation functional score of `P483G`
1.89

Form field: reported AIRE transcriptional activation functional score of `Q182N`
1.54

Form field: reported AIRE transcriptional activation functional score of `I224V`
0.58

Form field: reported AIRE transcriptional activation functional score of `A191D`
0.948

Form field: reported AIRE transcriptional activation functional score of `E376R`
1.12

Form field: reported AIRE transcriptional activation functional score of `H415V`
1.06

Form field: reported AIRE transcriptional activation functional score of `S234T`
0.61

Form field: reported AIRE transcriptional activation functional score of `H454A`
-0.16

Form field: reported AIRE transcriptional activation functional score of `T147P`
0.125

Form field: reported AIRE transcriptional activation functional score of `P331G`
1.07

Form field: reported AIRE transcriptional activation functional score of `T147N`
1.26

Form field: reported AIRE transcriptional activation functional score of `Q293N`
0.746

Form field: reported AIRE transcriptional activation functional score of `H319K`
1.15

Form field: reported AIRE transcriptional activation functional score of `E353C`
1.2

Form field: reported AIRE transcriptional activation functional score of `C302A`
0.669

Form field: reported AIRE transcriptional activation functional score of `L516P`
0.365

Form field: reported AIRE transcriptional activation functional score of `V206W`
0.352

Form field: reported AIRE transcriptional activation functional score of `P380M`
1.34

Form field: reported AIRE transcriptional activation functional score of `G277C`
1.38

Form field: reported AIRE transcriptional activation functional score of `L444G`
1.27

Form field: reported AIRE transcriptional activation functional score of `H396E`
-0.185

Form field: reported AIRE transcriptional activation functional score of `A317N`
0.865

Form field: reported AIRE transcriptional activation functional score of `H30M`
0.839

Form field: reported AIRE transcriptional activation functional score of `D439S`
0.93

Form field: reported AIRE transcriptional activation functional score of `D389M`
-0.143

Form field: reported AIRE transcriptional activation functional score of `C419G`
0.96

Form field: reported AIRE transcriptional activation functional score of `L10Q`
-0.766

Form field: reported AIRE transcriptional activation functional score of `G486L`
1.03

Form field: reported AIRE transcriptional activation functional score of `T480S`
0.786

Form field: reported AIRE transcriptional activation functional score of `A461K`
1.18

Form field: reported AIRE transcriptional activation functional score of `W335H`
0.428

Form field: reported AIRE transcriptional activation functional score of `V279Q`
-0.249

Form field: reported AIRE transcriptional activation functional score of `G435W`
0.957

Form field: reported AIRE transcriptional activation functional score of `V214H`
0.137

Form field: reported AIRE transcriptional activation functional score of `D103N`
0.59

Form field: reported AIRE transcriptional activation functional score of `G219N`
0.637

Form field: reported AIRE transcriptional activation functional score of `C457G`
0.0376

Form field: reported AIRE transcriptional activation functional score of `G219C`
1.5

Form field: reported AIRE transcriptional activation functional score of `P331Y`
1.08

Form field: reported AIRE transcriptional activation functional score of `L87D`
0.374

Form field: reported AIRE transcriptional activation functional score of `E207S`
0.372

Form field: reported AIRE transcriptional activation functional score of `P360C`
1.08

Form field: reported AIRE transcriptional activation functional score of `C322P`
1.25

Form field: reported AIRE transcriptional activation functional score of `K395E`
0.701

Form field: reported AIRE transcriptional activation functional score of `Q530T`
1.05
